# systemName: Recombinant human Tyro3 (455-end) (Homo sapiens, UniProt Q06418)
# Construct: GST (N)
# Sequence (Q06418 455-890 limits assumed): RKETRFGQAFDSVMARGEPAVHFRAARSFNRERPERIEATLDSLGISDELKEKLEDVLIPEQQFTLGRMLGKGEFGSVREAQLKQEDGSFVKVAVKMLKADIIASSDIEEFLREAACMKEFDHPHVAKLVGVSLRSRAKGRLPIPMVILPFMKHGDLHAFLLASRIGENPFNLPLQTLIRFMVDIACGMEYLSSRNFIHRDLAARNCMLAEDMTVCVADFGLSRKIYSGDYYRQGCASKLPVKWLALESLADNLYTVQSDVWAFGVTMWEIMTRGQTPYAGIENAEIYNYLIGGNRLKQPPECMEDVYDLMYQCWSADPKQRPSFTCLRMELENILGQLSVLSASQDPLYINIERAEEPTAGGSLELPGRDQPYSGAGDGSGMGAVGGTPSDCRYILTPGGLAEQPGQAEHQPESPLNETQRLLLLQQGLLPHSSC
# assay: Kinase enzymatic activity assay ([33P]-ATP phosphate transfer), Tyro3
# assaySetup: inhibitory activity on Tyro3; class symbols
pIC50: −log10 of the molar value.
Entries and their measured pIC50 follow.
endpointName: pIC50

[
  {
    "smilesString": "Nc1ncc(-c2cnn(C3CCOCC3)c2)cc1-c1nc(-c2ccccc2)no1",
    "recordedResult": "< 5.00"
  },
  {
    "smilesString": "Nc1ncc(-c2cnn(C3CCNCC3)c2)cc1-c1nnc(-c2nccs2)o1",
    "recordedResult": "> 6.30"
  },
  {
    "smilesString": "Nc1ncc(-c2cnn(C3CCN(C(=O)c4ccccc4)CC3)c2)cc1-c1nnc(-c2c(Cl)cccc2Cl)o1",
    "recordedResult": "> 6.30"
  },
  {
    "smilesString": "Nc1ncc(-c2cnn(C3CCNCC3)c2)cc1-c1ncc(-c2ccc(Cl)cc2)o1",
    "recordedResult": "> 6.30"
  },
  {
    "smilesString": "Nc1ncc(-c2cnn(C3CCN(C(=O)c4ccc(F)cc4)CC3)c2)cc1-c1ncc(-c2cccc(Cl)c2)o1",
    "recordedResult": "> 6.30"
  }
]

====

Entries and their measured IC50 follow.
# systemName: human Mer (578-872) (Homo sapiens, UniProt Q12866)
# Sequence (Q12866 578-872): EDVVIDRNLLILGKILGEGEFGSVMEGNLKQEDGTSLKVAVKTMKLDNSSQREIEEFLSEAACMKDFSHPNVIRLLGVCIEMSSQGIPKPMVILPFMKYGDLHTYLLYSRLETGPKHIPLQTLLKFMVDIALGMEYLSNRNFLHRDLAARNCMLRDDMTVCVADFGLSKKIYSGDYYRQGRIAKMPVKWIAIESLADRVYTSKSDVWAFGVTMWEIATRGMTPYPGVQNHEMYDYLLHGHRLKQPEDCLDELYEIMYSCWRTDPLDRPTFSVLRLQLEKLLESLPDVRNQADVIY

[
  {
    "smilesString": "Nc1ncc(-c2ccn(C3CCNCC3)c2)cc1-c1nnc(-c2c(Cl)cccc2Cl)o1",
    "IC50": "< 500 nM"
  },
  {
    "smilesString": "CC(=O)N1CCC(n2cc(-c3cnc(N)c(-c4nc(-c5ccccc5)no4)c3)cn2)CC1",
    "IC50": "< 500 nM"
  },
  {
    "smilesString": "CC(C)(C)OC(=O)N1CCC(n2cc(-c3cnc(N)c(-c4nnc(-c5cnccn5)o4)c3)cn2)CC1",
    "IC50": "1000 to 10000 nM"
  },
  {
    "smilesString": "CC(C)(C)OC(=O)N1CCC(n2cc(-c3cnc(N)c(-c4nnc(-c5ccc(C(C)(C)C)cc5)o4)c3)cn2)CC1",
    "IC50": "< 500 nM"
  },
  {
    "smilesString": "Nc1ncc(-c2cnn(C3CCNCC3)c2)cc1-c1nnc(-c2nccs2)o1",
    "IC50": "< 500 nM"
  },
  {
    "smilesString": "CCCCCCCCCCCCN1CCC(n2cc(-c3cnc(N)c(-c4ncc(-c5ccccc5)o4)c3)cn2)CC1",
    "IC50": "500 to 1000 nM"
  },
  {
    "smilesString": "Nc1ncc(-c2cnn(C3CCN(C(=O)c4ccccc4)CC3)c2)cc1-c1ncc(-c2ccc(Cl)cc2)o1",
    "IC50": "1000 to 10000 nM"
  },
  {
    "smilesString": "Nc1ncc(-c2cnn(C3CCNCC3)c2)cc1-c1nnc(-c2c(Cl)ccc(F)c2Cl)o1",
    "IC50": "< 500 nM"
  },
  {
    "smilesString": "CN1CCC(n2cc(-c3cnc(N)c(-c4nc(-c5c(Cl)cccc5Cl)no4)c3)cn2)CC1",
    "IC50": "< 500 nM"
  },
  {
    "smilesString": "CC(=O)N1CCC(n2cc(-c3cnc(N)c(-c4ncc(-c5cccc(Cl)c5)o4)c3)cn2)CC1",
    "IC50": "< 500 nM"
  }
]
